- experiment: total protein half-life in vivo (active degradation + dilution); higher = more stable protein
- test-settings: wild type E. coli NCM3722; growth: P-lim chemostat; doubling time 12 h
Please enter YES where total protein half-life in vivo is greater than or equal to 10 h, and NO where it is lower.

Recorded results for 5 sequences are shown here.
macromolecule-sequence: MFKPHVTVACVVHAEGKFLVVEETINGKALWNQPAGHLEADETLVEAAARELWEETGISAQPQHFIRMHQWIAPDKTPFLRFLFAIELEQICPTQPHDSDIDCCRWVSAEEILQASNLRSPLVAESIRCYQSGQRYPLEMIGDFNWPFTKGVI [P0AEI6]
group: YES

macromolecule-sequence: MSNTYQKRKASKEYGLYNQCKKLNDDELFRLLDDHNSLKRISSARVLQLRGGQDAVRLAIEFCSDKNYIRRDIGAFILGQIKICKKCEDNVFNILNNMALNDKSACVRATAIESTAQRCKKNPIYSPKIVEQSQITAFDKSTNVRRATAFAISVINDKATIPLLINLLKDPNGDVRNWAAFAININKYDNSDIRDCFVEMLQDKNEEVRIEAIIGLSYRKDKRVLSVLCDELKKNTVYDDIIEAAGELGDKTLLPVLDTMLYKFDDNEIITSAIDKLKRS [P0ADK6]
group: NO

macromolecule-sequence: MTETIKVSESLELHAVAENHVKPLYQLICKNKTWLQQSLNWPQFVQSEEDTRKTVQGNVMLHQRGYAKMFMIFKEDELIGVISFNRIEPLNKTAEIGYWLDESHQGQGIISQALQALIHHYAQSGELRRFVIKCRVDNPQSNQVALRNGFILEGCLKQAEFLNDAYDDVNLYARIIDSQ
group: YES

macromolecule-sequence: MMKNILAIQSHVVYGHAGNSAAEFPMRRLGANVWPLNTVQFSNHTQYGKWTGCVMPPSHLTEIVQGIAAIDKLHTCDAVLSGYLGSAEQGEHILGIVRQVKAANPQAKYFCDPVMGHPEKGCIVAPGVAEFHVRHGLPASDIIAPNLVELEILCEHAVNNVEEAVLAARELIAQGPQIVLVKHLARAGYSRDRFEMLLVTADEAWHISRPLVDFGMRQPVGVGDVTSGLLLVKLLQGATLQEALEHVTAAVYEIMVTTKAMQEYELQVVAAQDRIAKPEHYFSATKL
group: NO

macromolecule-sequence: MSSNFRHQLLSLSLLVGIAAPWAAFAQAPISSVGSGSVEDRVTQLERISNAHSQLLTQLQQQLSDNQSDIDSLRGQIQENQYQLNQVVERQKQILLQIDSLSSGGAAAQSTSGDQSGAAASTTPTADAGTANAGAPVKSGNANTDYNAAIALVQDKSRQDDAMVAFQNFIKNYPDSTYLPNANYWLGQLNYNKGKKDDAAYYFASVVKNYPKSPKAADAMFKVGVIMQDKGDTAKAKAVYQQVISKYPGTDGAKQAQKRLNAM
group: YES

Could you now look at the following sequence, please?
State whether the measured total protein half-life in vivo reaches 10 h, counting equality as reaching it, for MPLLDIRNLTIEFKTGDEWVKAVDRVSMTLTEGEIRGLVGESGSGKSLIAKAICGVNKDNWRVTADRMRFDDIDLLRLSARERRKLVGHNVSMIFQEPQSCLDPSERVGRQLMQNIPAWTYKGRWWQRFGWRKRRAIELLHRVGIKDHKDAMRSFPYELTEGECQKVMIAIALANQPRLLIADEPTNSMEPTTQAQIFRLLTRLNQNSNTTILLISHDLQMLSQWADKINVLYCGQTVETAPSKELVTMPHHPYTQALIRAIPDFGSAMPHKSRLNTLPGAIPLLEQLPIGCRLGPRCPYAQRECIVTPRLTGAKNHLYACHFPLNMEKE [P0AAH4]
YES

###

- experiment: total protein half-life in vivo (active degradation + dilution); higher = more stable protein
- test-settings: wild type E. coli NCM3722; growth: C-lim chemostat; doubling time 3 h
endpoint-name: total protein half-life in vivo (h)
Expressed in h, but write only the number.

Take a look at these entries with their results.
macromolecule-sequence: MMVIRPVERSDVSALMQLASKTGGGLTSLPANEATLSARIERAIKTWQGELPKSEQGYVFVLEDSETGTVAGICAIEVAVGLNDPWYNYRVGTLVHASKELNVYNALPTLFLSNDHTGSSELCTLFLDPDWRKEGNGYLLSKSRFMFMAAFRDKFNDKVVAEMRGVIDEHGYSPFWQSLGKRFFSMDFSRADFLCGTGQKAFIAELMPKHPIYTHFLSQEAQDVIGQVHPQTAPARAVLEKEGFRYRNYIDIFDGGPTLECDIDRVRAIRKSRLVEVAEGQPAQGDFPACLVANENYHHFRVVLVRTDPATERLILTAAQLDALKCHAGDRVRLVRLCAEEKTA [P0AE37]
unit-symbol: h
observed: 2.58
//
macromolecule-sequence: MNDIAHNLAQVRDKISAAATRCGRSPEEITLLAVSKTKPASAIAEAIDAGQRQFGENYVQEGVDKIRHFQELGVTGLEWHFIGPLQSNKSRLVAEHFDWCHTIDRLRIATRLNDQRPAELPPLNVLIQINISDENSKSGIQLAELDELAAAVAELPRLRLRGLMAIPAPESEYVRQFEVARQMAVAFAGLKTRYPHIDTLSLGMSDDMEAAIAAGSTMVRIGTAIFGARDYSKK
unit-symbol: h
observed: 3.39
//
macromolecule-sequence: MWKRLLIVSAVSAAMSSMALAAPLTVGFSQVGSESGWRAAETNVAKSEAEKRGITLKIADGQQKQENQIKAVRSFVAQGVDAIFIAPVVATGWEPVLKEAKDAEIPVFLLDRSIDVKDKSLYMTTVTADNILEGKLIGDWLVKEVNGKPCNVVELQGTVGASVAIDRKKGFAEAIKNAPNIKIIRSQSGDFTRSKGKEVMESFIKAENNGKNICMVYAHNDDMVIGAIQAIKEAGLKPGKDILTGSIDGVPDIYKAMMDGEANASVELTPNMAGPAFDALEKYKKDGTMPEKLTLTKSTLYLPDTAKEELEKKKNMGY
unit-symbol: h
observed: 3.09
//
macromolecule-sequence: MKKVLIAALIAGFSLSATAAETIRFATEASYPPFESIDANNQIVGFDVDLAQALCKEIDATCTFSNQAFDSLIPSLKFRRVEAVMAGMDITPEREKQVLFTTPYYDNSALFVGQQGKYTSVDQLKGKKVGVQNGTTHQKFIMDKHPEITTVPYDSYQNAKLDLQNGRIDGVFGDTAVVTEWLKDNPKLAAVGDKVTDKDYFGTGLGIAVRQGNTELQQKLNTALEKVKKDGTYETIYNKWFQK
unit-symbol: h
observed: 3.16
//
macromolecule-sequence: MPKLILASTSPWRRALLEKLQISFECAAPEVDETPRSDESPRQLVLRLAQEKAQSLASRYPDHLIIGSDQVCVLDGEITGKPLTEENARLQLRKASGNIVTFYTGLALFNSANGHLQTEVEPFDVHFRHLSEAEIDNYVRKEHPLHCAGSFKSEGFGITLFERLEGRDPNTLVGLPLIALCQMLRREGKNPLMG [P0A729]
unit-symbol: h
observed: 3.14

Field: next sequence
Recorded total protein half-life in vivo (sequence MTHFSQQDNFSVAARVLGALFYYAPESAEAAPLVAVLTSDGWETQWPLPEASLAPLVTAFQTQCEETHAQAWQRLFVGPWALPSPPWGSVWLDRESVLFGDSTLALRQWMREKGIQFEMKQNEPEDHFGSLLLMAAWLAENGRQTECEELLAWHLFPWSTRFLDVFIEKAEHPFYRALGELARLTLAQWQSQLLIPVAVKPLFR ): 3

###

As shown below, each of these sequences has a reported total protein half-life in vivo value.
- experiment: total protein half-life in vivo (active degradation + dilution); higher = more stable protein
- test-settings: wild type E. coli NCM3722; growth: C-lim chemostat; doubling time 12 h
Expressed in h, but write only the number.

macromolecule-sequence: MKMIEVVAAIIERDGKILLAQRPAQSDQAGLWEFAGGKVEPDESQRQALVRELREELGIEATVGEYVASHQREVSGRIIHLHAWHVPDFHGTLQAHEHQALVWCSPEEALQYPLAPADIPLLEAFMALRAARPAD
observed: 8.63

macromolecule-sequence: MSFELPALPYAKDALAPHISAETIEYHYGKHHQTYVTNLNNLIKGTAFEGKSLEEIIRSSEGGVFNNAAQVWNHTFYWNCLAPNAGGEPTGKVAEAIAASFGSFADFKAQFTDAAIKNFGSGWTWLVKNSDGKLAIVSTSNAGTPLTTDATPLLTVDVWEHAYYIDYRNARPGYLEHFWALVNWEFVAKNLAA [P0AGD3]
observed: 11.6

Recorded total protein half-life in vivo (sequence MATLKDIAIEAGVSLATVSRVLNDDPTLNVKEETKHRILEIAEKLEYKTSSARKLQTGAVNQHHILAIYSYQQELEINDPYYLAIRHGIETQCEKLGIELTNCYEHSGLPDIKNVTGILIVGKPTPALRAAASALTDNICFIDFHEPGSGYDAVDIDLARISKEIIDFYINQGVNRIGFIGGEDEPGKADIREVAFAEYGRLKQVVREEDIWRGGFSSSSGYELAKQMLAREDYPKALFVASDSIAIGVLRAIHERGLNIPQDISLISVNDIPTARFTFPPLSTVRIHSEMMGSQGVNLVYEKARDGRALPLLVFVPSKLKLRGTTR ): 9.8
